B1: SNX8 (parent)
chain: LHQETQLIHVYLPLTSHILRAFVN

variants of: B1; assay: protein stability index of a GFP-peptide fusion (GPS, HEK-293T) (PSI 1-6); higher = more stable; conditions: c terminus: a fixed tail appended;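 note: lentivirally expressed fusions sorted by FACS into six bins by GFP to DsRed ratio, PSI derived from sequencing read proportions per bin multiplied by bin number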
This section presents variants with their documented protein stability index values.
Give the value as a plain number.

[
  {
    "SEQ": "DHQETQLIHVYLPLTSHILRAFVN [L1D]",
    "PROPERTY": "protein stability index",
    "REPORTED_RESULT": 3.07
  },
  {
    "SEQ": "LHQETQLIHVYLPLTSHYLRAFVN [I18Y]",
    "PROPERTY": "protein stability index",
    "REPORTED_RESULT": 2.39
  },
  {
    "SEQ": "LHPETQLIHVYLPLTSHILRAFVN [Q3P]",
    "PROPERTY": "protein stability index",
    "REPORTED_RESULT": 2.31
  },
  {
    "SEQ": "LHQEIQLIHVYLPLTSHILRAFVN [T5I]",
    "PROPERTY": "protein stability index",
    "REPORTED_RESULT": 3.8
  },
  {
    "SEQ": "LHQETQLIHVYLPLTSHILRIFVN [A21I]",
    "PROPERTY": "protein stability index",
    "REPORTED_RESULT": 3.77
  },
  {
    "SEQ": "LHQETQLIHVYLPLTSHVLRAFVN [I18V]",
    "PROPERTY": "protein stability index",
    "REPORTED_RESULT": 3.55
  }
]

The variant listed as LHQETQLIAVYLPLTSHILRAFVN [H9A] has a reported protein stability index of 2.16

The variant listed as LHQETQLIHVMLPLTSHILRAFVN [Y11M] has a reported protein stability index of 3.64

The variant listed as LHQETQLIHWYLPLTSHILRAFVN [V10W] has a reported protein stability index of 2.2

The variant listed as LHQETQLIHVYLPLTSHILRAFPN [V23P] has a reported protein stability index of 2.03

The variant listed as LVQETQLIHVYLPLTSHILRAFVN [H2V] has a reported protein stability index of 2.6

The variant listed as LNQETQLIHVYLPLTSHILRAFVN [H2N] has a reported protein stability index of 2.5
